- measured_on: T1, GST-MDMX containing full-length human MDMX (human, UniProt O15151 1-490)
- T1 construct: mature; MDMX', expressed in E. coli as a GST fusion; 'mature' stands for full-length; not shown: GST tag
- T1 sequence (looked up): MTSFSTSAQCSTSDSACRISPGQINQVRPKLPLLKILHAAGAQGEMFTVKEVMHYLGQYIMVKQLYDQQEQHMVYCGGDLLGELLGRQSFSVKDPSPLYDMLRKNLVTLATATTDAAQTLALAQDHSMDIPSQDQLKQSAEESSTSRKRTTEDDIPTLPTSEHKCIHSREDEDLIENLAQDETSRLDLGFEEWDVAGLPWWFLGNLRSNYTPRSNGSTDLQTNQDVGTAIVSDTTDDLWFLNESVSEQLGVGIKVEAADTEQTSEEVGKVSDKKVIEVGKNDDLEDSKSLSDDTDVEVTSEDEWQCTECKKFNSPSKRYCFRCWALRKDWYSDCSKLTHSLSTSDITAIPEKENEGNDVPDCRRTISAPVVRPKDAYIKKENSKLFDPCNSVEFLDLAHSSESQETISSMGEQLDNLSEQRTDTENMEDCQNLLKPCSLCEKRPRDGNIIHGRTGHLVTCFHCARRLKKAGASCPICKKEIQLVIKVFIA
- assay_method_text: competition ELISA: peptide inhibits GST-MDMX binding to coated His6-p53
Numbered stars: 1 amine (or outer) side, 2 acyl side, 3 side chain; on linkers, the order of the positions; unused ones are H or OH. Bridge positions count the residues as written; N and C are the ends. Square brackets hold non-standard residues; d marks the D form. CH2(3,3'-bipyridine-6,6')CH2 = c1cc(C[*:1])ncc1-c1ccc(C[*:2])nc1; Biphenyl(4,4'-CH2)2 = c1cc(-c2ccc(C[*:2])cc2)ccc1C[*:1]
measurement_type: IC50 (nM)

Ac-LTFCHYWAQLCS-NH2 (cysteine pairing not given here, not cross-linked; also called peptide 1) [PDI analog 1 (linear L,L-dicysteine peptide)] ... 1850
Ac-LTF[dC]RYWARLCS-NH2 (linker 4-11 via Biphenyl(4,4'-CH2)2, Printed as LTFc'RYWARLC'S) [PDI analog 4a (Bph cross-linked D,L-dicysteine peptide, two arginines)] ... 4490
Ac-LTF[dC]RYWARLCS-NH2 (linker 4-11 via CH2(3,3'-bipyridine-6,6')CH2; SMILES CC(=O)N[C@@H](CC(C)C)C(=O)N[C@H](C(=O)N[C@@H](Cc1ccccc1)C(=O)N[C@@H]1CSCc2ccc(cn2)-c2ccc(nc2)CSC[C@@H](C(=O)N[C@@H](CO)C(N)=O)NC(=O)[C@H](CC(C)C)NC(=O)[C@H](CCCNC(=N)N)NC(=O)[C@H](C)NC(=O)[C@H](Cc2c[nH]c3ccccc23)NC(=O)[C@H](Cc2ccc(O)cc2)NC(=O)[C@H](CCCNC(=N)N)NC1=O)[C@@H](C)O, Printed as LTFc"RYWARLC"S) [PDI analog 4b (Bpy cross-linked D,L-dicysteine peptide, two arginines)] ... 1150
Ac-LTFCRYWARLCS-NH2 (linker 4-11 via CH2(3,3'-bipyridine-6,6')CH2; SMILES CC(=O)N[C@@H](CC(C)C)C(=O)N[C@H](C(=O)N[C@@H](Cc1ccccc1)C(=O)N[C@H]1CSCc2ccc(cn2)-c2ccc(nc2)CSC[C@@H](C(=O)N[C@@H](CO)C(N)=O)NC(=O)[C@H](CC(C)C)NC(=O)[C@H](CCCNC(=N)N)NC(=O)[C@H](C)NC(=O)[C@H](Cc2c[nH]c3ccccc23)NC(=O)[C@H](Cc2ccc(O)cc2)NC(=O)[C@H](CCCNC(=N)N)NC1=O)[C@@H](C)O, Printed as LTFC"RYWARLC"S) [PDI analog 2b (Bpy cross-linked, two arginines)] ... 1520
